# system: Endothelin-1 receptor (Homo sapiens)
# Sequence (P25101 whole entry): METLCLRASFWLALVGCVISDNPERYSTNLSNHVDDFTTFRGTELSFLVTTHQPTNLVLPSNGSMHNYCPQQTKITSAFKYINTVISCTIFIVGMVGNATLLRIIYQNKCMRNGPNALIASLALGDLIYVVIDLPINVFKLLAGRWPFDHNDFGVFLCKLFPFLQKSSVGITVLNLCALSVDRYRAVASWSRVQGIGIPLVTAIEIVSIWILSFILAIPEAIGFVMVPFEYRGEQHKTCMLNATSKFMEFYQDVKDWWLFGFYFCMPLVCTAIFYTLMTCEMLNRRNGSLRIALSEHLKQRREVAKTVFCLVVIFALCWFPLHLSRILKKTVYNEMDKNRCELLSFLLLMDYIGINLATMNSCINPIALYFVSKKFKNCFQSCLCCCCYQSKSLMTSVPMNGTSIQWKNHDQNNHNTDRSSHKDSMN
# experiment.notes: Antagonist activity at ETA receptor (unknown origin)
The entries below come with measured IC50 values attached.
readout.kind: IC50 (µM)

1. Cc1c(C(=O)O)oc2cccc(OCc3ccccc3)c12 : 3.8
2. COc1cccc2oc(C(=O)O)c(C)c12 : 11

====

The entries below come with measured inhibition values attached.
# system: Endothelin-1 receptor (Rattus norvegicus)
# Sequence (whole entry): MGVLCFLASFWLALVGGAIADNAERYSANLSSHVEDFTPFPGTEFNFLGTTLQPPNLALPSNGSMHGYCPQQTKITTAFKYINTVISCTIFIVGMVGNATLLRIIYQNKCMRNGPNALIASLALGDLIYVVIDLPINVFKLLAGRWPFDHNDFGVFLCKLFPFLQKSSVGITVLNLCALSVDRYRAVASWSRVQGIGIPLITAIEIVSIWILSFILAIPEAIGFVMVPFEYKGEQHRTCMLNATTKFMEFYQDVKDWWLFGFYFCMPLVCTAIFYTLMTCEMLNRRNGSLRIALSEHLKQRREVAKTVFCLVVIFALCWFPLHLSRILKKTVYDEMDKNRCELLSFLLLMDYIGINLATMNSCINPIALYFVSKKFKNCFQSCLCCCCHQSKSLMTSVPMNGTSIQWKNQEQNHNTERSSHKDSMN
# experiment.notes: Antagonist activity at ETA receptor in Sprague-Dawley Rattus norvegicus (rat) thoracic aortic ring assessed as inhibition of ET1-induced thoracic aortic ring contraction at 10 uM after 30 min relative to control
Square brackets hold non-standard residues; d marks the D form. Peptide text beside a SMILES is read from it.
readout.kind: inhibition (%)

1) Cc1c(C(=O)O)oc2cccc(OCc3ccccc3)c12 : 40.7
2) CC(C)C[C@@H]1NC(=O)[C@@H](C(C)C)NC(=O)[C@@H]2CCCN2C(=O)[C@@H](CC(=O)O)NC(=O)[C@@H](Cc2c[nH]c3ccccc23)NC1=O [BQ-123] (cyclo(L[dW][dD]P[dV])) : 68.1
3) CCOc1cccc2oc(C(=O)O)c(C)c12 : 61
4) Cc1c(C(=O)O)oc2cccc(OCCOc3cccc(Cl)c3)c12 : 21.7
5) Cc1c(C(=O)O)oc2cccc(OC(CCC(=O)O)c3ccccc3)c12 (stereo unspecified) : 44
6) Cc1ccc(OCCOc2cccc3oc(C(=O)O)c(C)c23)cc1 : 40.8
